- Tested on: L1210 leukemia ip in BDF1 mice, survival T/C
- TEST_METHOD_NOTES: NCI In Vivo Anticancer Drug Screen. Data for tumor model L1210 Leukemia (intraperitoneal) in B6D2F1 (BDF1) mice
- CONDITION_DETAILS: endpoint: mean survival time; dose: 400.0 mg/kg/injection; schedule: Q01DX001 (ip); vehicle: saline with Tween-80; higher = longer survival
Toxic doses and inconclusive results are not listed.
Measured T/C of individual entries
MEASURED_METRIC: T/C

CC1=C(c2ccccc2)C(c2ccccc2)=C(C)C1=NNc1ccc([N+](=O)[O-])cc1[N+](=O)[O-] : 86 % of control
CC(=O)/C=C(/C(=O)c1ccccc1)c1ccccc1 : 97 % of control
NC(CC(O)C(=O)O)C(=O)O (stereo not drawn) : 87 % of control
COc1ccc(Cl)cc1NC(=O)Oc1ccc2ccccc2c1 : 96 % of control
O=C(NCCCl)N(O)C12CC3CC(CC(C3)C1)C2 : 98 % of control
COc1ccccc1CCCOC(=O)c1ccc([N+](=O)[O-])cc1 : 89 % of control
CC12CCc3oc(-c4ccccc4)cc3C1=CCCC2=O (stereo not drawn) : 96 % of control
O=C(O)C1C2CC(O)C(C2)C1C(=O)O (stereo not drawn) : 100 % of control
C[Si](F)(c1cccc2ccccc12)c1cccc2ccccc12 : 102 % of control
CCOCCC(=O)NCc1ccccc1 : 106 % of control
c1ccc(-c2c(-c3ccccc3)c(-c3ccccc3)c(-c3ccc(Oc4ccc(-c5c(-c6ccccc6)c(-c6ccccc6)c(-c6ccccc6)c(-c6ccccc6)c5-c5ccccc5)cc4)cc3)c(-c3ccccc3)c2-c2ccccc2)cc1 : 100 % of control
CC(=O)OC1CCC2(C)C(=CCC3C2CCC2(C)C3CC3OC4(CCC(C)CN4C(C)=O)C(C)C32)C1 (stereo not drawn) : 95 % of control
O=C(O)c1ccc(/C=C\c2cccc(S(=O)(=O)F)c2)cc1 : 92 % of control
